system: BT-549 breast; assay: NCI-60 one-dose screen, 48 h (100 = growth as untreated, 0 = no growth, -100 = all killed); conditions: 10 µM unless noted
Compounds without any hit were thinned out: in the full panel of roughly 83,000, 20% have a hit.
measurement name: growth (%)
Kindly answer with a numeric value in %, unit omitted.

Example entries begin here.
[
  {
    "smiles string": "CC(C)CSc1nc(-c2ccc(F)cc2)c(C#N)c(N2CCCCC2)n1",
    "endpoint result": 88.9
  },
  {
    "smiles string": "C[n+]1c2ccccc2c(Nc2ccc(NS(=O)(=O)CCCCN=C(N)N)cc2)c2ccc(N)cc21",
    "endpoint result": 88.7
  },
  {
    "smiles string": "COc1ccc(CN2C(=O)/C(=C\\C(=O)c3ccc(OCCN4CCCC4)cc3)c3ccccc32)cc1",
    "endpoint result": 92.5
  }
]

Exercise: Field request: growth | item: CC1(C)Oc2cc3oc(=O)ccc3cc2C[C@@H]1OCCOS(=O)(=O)c1ccc(C#N)cc1
Key: 90.3

Exercise: Would you kindly share the measured growth for O=C(Nc1cccc2[nH]c(C(F)(F)F)nc12)c1ccc(F)cc1 ?
Key: 87.5
